# System: MSTO-211H (Mesothelioma);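 also: after 72 h of two-drug dosing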
# Assay overview: Bliss excess, mean over the matrix (fraction); higher = more synergy
Measured metric: Bliss excess
Hey, just send me the number, nothing else.

Previously resolved entries follow.
- Molecule: "COc1cccc(OCCCN)c1-c1cc(Nc2cnc(C#N)cn2)n[nH]1 [Prexasertib] + O=C(c1cc(Cc2n[nH]c(=O)c3ccccc23)ccc1F)N1CCN(C(=O)C2CC2)CC1 [Olaparib] (first compound max 1 µM, 7x7, partner max 10 µM)"
  Bliss excess: -0.0597
- Molecule: "C[C@@H]1COCCN1c1cc(C2([S@](C)(=N)=O)CC2)nc(-c2ccnc3[nH]ccc23)n1 [AZD6738] + Nc1ccn([C@@H]2O[C@H](CO)[C@@H](O)C2(F)F)c(=O)n1 [Gemcitabine] (first compound max 10 µM, 7x7, partner max 0.3 µM)"
  Bliss excess: 0.0098
- Molecule: "C[C@@H](Nc1cc(F)cc(F)c1)c1cc(C(=O)N(C)C)cc2c(=O)cc(N3CCOCC3)oc12 [AZD8186] + C1CN(CCC1(C(=O)N[C@@H](CCO)C2=CC=C(C=C2)Cl)N)C3=NC=NC4=C3C=CN4 [AZD5363] (first compound max 10 µM, 7x7, partner max 10 µM)"
  Bliss excess: 0.0272
- Molecule: "CC(=O)c1c(C)c2cnc(Nc3ccc(N4CCNCC4)cn3)nc2n(C2CCCC2)c1=O [Palbociclib] + Cc1c2c(nn1C)CSCc1cc(n(C)n1)CSc1cc(c3ccccc3c1)OCCCc1c(C(=O)O)n(C)c3c-2c(Cl)ccc13 [AZD5991] (first compound max 10 µM, 7x7, partner max 1 µM)"
  Bliss excess: -0.0265
- Molecule: "O=C(c1cc(Cc2n[nH]c(=O)c3ccccc23)ccc1F)N1CCN(C(=O)C2CC2)CC1 [Olaparib] + CN(CC[C@H](CSC1=CC=CC=C1)NC2=C(C=C(C=C2)S(=O)(=O)NC(=O)C3=CC=C(C=C3)N4CCC(CC4)[C@H](C5=CC=CC=C5C6=CC=C(C=C6)Cl)O)S(=O)(=O)C(F)(F)F)CCO [AZD4320] (first compound max 10 µM, 7x7, partner max 1 µM)"
  Bliss excess: -0.0173
- Molecule: "CC(=O)Nc1cccc(-n2c(=O)n(C3CC3)c(=O)c3c(Nc4ccc(I)cc4F)n(C)c(=O)c(C)c32)c1 [Trametinib] + Cc1nc(-c2cn3c(n2)-c2ccc(-c4cnn(C(C)(C)C(N)=O)c4)cc2OCC3)n(C(C)C)n1 [Taselisib] (first compound max 1 µM, 7x7, partner max 10 µM)"
  Bliss excess: 0.122

Tell me Bliss excess reported for N#Cc1cnc(Nc2cc(NC[C@H]3CNCCO3)c(C(F)(F)F)cn2)cn1 [SRA737] + C=CCn1c(=O)c2cnc(Nc3ccc(N4CCN(C)CC4)cc3)nc2n1-c1cccc(C(C)(C)O)n1 [AZD1775] (first compound max 10 µM, partner max 1 µM)
0.131

* * *

# Tested on: SW48 (Colorectal Carcinoma)
# Assay overview: combination Emax (second highest fraction inhibited in the dose matrix, 72 h); higher = more inhibition; extreme values may be limits of the assay
Class membership depends on combination Emax alone; the intervals are category 1: < 0.4; category 2: ≥ 0.4 and < 0.8; category 3: ≥ 0.8

Classify this molecule: CN(CCO)CC[C@H](CSc1ccccc1)Nc1ccc(S(=O)(=O)NC(=O)c2ccc(N3CCC([C@@H](O)c4ccccc4-c4ccc(Cl)cc4)CC3)cc2)cc1S(=O)(=O)C(F)(F)F [AZD4320] + C[C@@H]1COCCN1C2=NC(=NC(=C2)C3(CC3)[S@](=N)(=O)C)C4=C5C=CNC5=NC=C4 [AZD6738] (first compound max 1 µM, 7x7, partner max 10 µM)
category 3

Classify this molecule: NC1(C(=O)N[C@@H](CCO)c2ccc(Cl)cc2)CCN(c2ncnc3[nH]ccc23)CC1 [Capivasertib] + CC(=O)c1c(C)c2cnc(Nc3ccc(N4CCNCC4)cn3)nc2n(C2CCCC2)c1=O [Palbociclib] (first compound max 10 µM, 7x7, partner max 10 µM)
category 2

Classify this molecule: CC1(C)CCC(CN2CCN(c3ccc(C(=O)NS(=O)(=O)c4ccc(NCC5CCOCC5)c([N+](=O)[O-])c4)c(Oc4cnc5[nH]ccc5c4)c3)CC2)=C(c2ccc(Cl)cc2)C1 [Venetoclax] + CCN(CCO)CCCOc1ccc2c(Nc3cc(CC(=O)Nc4cccc(F)c4)[nH]n3)ncnc2c1 [AZD2811] (first compound max 1 µM, 7x7, partner max 1 µM)
category 3

Classify this molecule: Cc1c2c(nn1C)CSCc1cc(n(C)n1)CSc1cc(c3ccccc3c1)OCCCc1c(C(=O)O)n(C)c3c-2c(Cl)ccc13 [AZD5991] + C[C@@H]1COCCN1C2=NC(=NC(=C2)C3(CC3)[S@](=N)(=O)C)C4=C5C=CNC5=NC=C4 [AZD6738] (first compound max 1 µM, 7x7, partner max 10 µM)
category 2

Classify this molecule: Cc1cc2ncnn2cc1Nc1ncc2c(n1)n(C1CCOCC1)c(=O)n2C [AZD7648] + CN(C)CCCOc1ccc(-c2ccc3ncc4c(c3c2)n(C2CCOCC2)c(=O)n4C)cn1 [AZD0156] (first compound max 10 µM, 7x7, partner max 1 µM)
category 1

Classify this molecule: CN(CCO)CC[C@H](CSc1ccccc1)Nc1ccc(S(=O)(=O)NC(=O)c2ccc(N3CCC([C@@H](O)c4ccccc4-c4ccc(Cl)cc4)CC3)cc2)cc1S(=O)(=O)C(F)(F)F [AZD4320] + Cn1cnc2c(F)c(Nc3ccc(Br)cc3Cl)c(C(=O)NOCCO)cc21 [Selumetinib] (first compound max 1 µM, 7x7, partner max 3 µM)
category 3

Classify this molecule: COc1cc2c(cc1OCCCCCOc1cc3c(cc1OC)C(=O)N1C=C(C)C[C@H]1C=N3)N=C[C@@H]1CC(C)=CN1C2=O [SG3199] + O=C(c1cc(Cc2n[nH]c(=O)c3ccccc23)ccc1F)N1CCN(C(=O)C2CC2)CC1 [Olaparib] (first compound max 0.001 µM, 7x7, partner max 10 µM)
category 1

Classify this molecule: Cn1cnc2c(F)c(Nc3ccc(Br)cc3Cl)c(C(=O)NOCCO)cc21 [Selumetinib] + CC(C)n1c(=O)n(C)c2cnc3cc(F)c(-c4ccc(OCCCN5CCCCC5)nc4)cc3c21 [AZD1390] (first compound max 10 µM, 7x7, partner max 0.3 µM)
category 1

Classify this molecule: CN(CCO)CC[C@H](CSc1ccccc1)Nc1ccc(S(=O)(=O)NC(=O)c2ccc(N3CCC([C@@H](O)c4ccccc4-c4ccc(Cl)cc4)CC3)cc2)cc1S(=O)(=O)C(F)(F)F [AZD4320] + C=CCn1c(=O)c2cnc(Nc3ccc(N4CCN(C)CC4)cc3)nc2n1-c1cccc(C(C)(C)O)n1 [AZD1775] (first compound max 1 µM, partner max 1 µM)
category 3

Classify this molecule: Cc1cc2ncnn2cc1Nc1ncc2c(n1)n(C1CCOCC1)c(=O)n2C [AZD7648] + O=C(c1cc(Cc2n[nH]c(=O)c3ccccc23)ccc1F)N1CCN(C(=O)C2CC2)CC1 [Olaparib] (first compound max 10 µM, 7x7, partner max 10 µM)
category 1

Classify this molecule: N#Cc1cnc(Nc2cc(NC[C@H]3CNCCO3)c(C(F)(F)F)cn2)cn1 [SRA737] + O=c1[nH]cc(F)c(=O)[nH]1 [5-Fluorouracil] (first compound max 10 µM, 7x7, partner max 20 µM)
category 2

Classify this molecule: C=CCn1c(=O)c2cnc(Nc3ccc(N4CCN(C)CC4)cc3)nc2n1-c1cccc(C(C)(C)O)n1 [AZD1775] + Nc1ccn([C@@H]2O[C@H](CO)[C@@H](O)C2(F)F)c(=O)n1 [Gemcitabine] (first compound max 1 µM, partner max 0.3 µM)
category 3

* * *

# Test system: CAL-39 (Other Solid Carcinomas)
# Assay overview: combination Emax (second highest fraction inhibited in the dose matrix, 72 h); higher = more inhibition; extreme values may be limits of the assay
Catalogue of combination Emax readings, one per entry.
Hey, just send me the number, nothing else.

Previously resolved entries follow.
- Compound: "Cc1c2c(nn1C)CSCc1cc(n(C)n1)CSc1cc(c3ccccc3c1)OCCCc1c(C(=O)O)n(C)c3c-2c(Cl)ccc13 [AZD5991] + CCN(CCO)CCCOc1ccc2c(Nc3cc(CC(=O)Nc4cccc(F)c4)[nH]n3)ncnc2c1 [AZD2811] (first compound max 1 µM, 7x7, partner max 1 µM)"
  combination Emax: 0.815
- Compound: "CS(=O)(=O)CCNCc1ccc(-c2ccc3ncnc(Nc4ccc(OCc5cccc(F)c5)c(Cl)c4)c3c2)o1 [Lapatinib] + C[C@@H](Oc1cc(-c2cnn(C3CCNCC3)c2)cnc1N)c1c(Cl)ccc(F)c1Cl [Crizotinib] (first compound max 10 µM, 7x7, partner max 10 µM)"
  combination Emax: 1
- Compound: "C[C@@H]1COCCN1c1cc(C2([S@](C)(=N)=O)CC2)nc(-c2ccnc3[nH]ccc23)n1 [AZD6738] + C1CC(C1)(C(=O)[O-])C(=O)[O-].N.N.[Pt+2] [Carboplatin] (first compound max 10 µM, 7x7, partner max 10 µM)"
  combination Emax: 0.609

Tell me combination Emax reported for Cc1cc2ncnn2cc1Nc1ncc2c(n1)n(C1CCOCC1)c(=O)n2C [AZD7648] + CCN(CCO)CCCOc1ccc2c(Nc3cc(CC(=O)Nc4cccc(F)c4)[nH]n3)ncnc2c1 [AZD2811] (first compound max 10 µM, 7x7, partner max 1 µM)
0.433
